Target: SARS-CoV-2 NSP3 macrodomain (Mac1) (Severe acute respiratory syndrome coronavirus 2)
Assay: biochemical
Type: binding
outcome_measure: Average % competition (%)
Numbers only, in %.

These solved cases illustrate the format of a correct answer.
compound	Average % competition [%]
O=C(O)c1ccc2c(c1)C(NC(=O)C1CCn3ncnc3C1)CCC2 (stereo not shown)	21
CC(=O)Nc1ccc(S(=O)(=O)CCCN2C(=O)CC(C)(C(C)C)C2=O)cc1 (stereo not shown)	19
CC1CN(C(=O)c2ccccc2S(C)(=O)=O)c2cccnc2O1 (stereo not shown)	13

Pending compound:
Exercise: Find the measured Average % competition: item `CC1(c2ccc(F)cc2)CN(C(=O)c2cnc(N)nc2C(F)(F)F)C1` , target or system SARS-CoV-2 NSP3 macrodomain (Mac1) (Severe acute respiratory syndrome coronavirus 2).
Solution: 20
